FYI, the data here is from PubChem BioAssay (NCI).

test system: NCI/ADR-RES ovarian; test: NCI-60 one-dose screen, 48 h (100 = growth as untreated, 0 = no growth, -100 = all killed); conditions: 10 µM unless noted
This is part of a sample that, as a whole, favours compounds with a hit. Of some 83,000 tested, about 20% had one in any assay.
Classification field: met = growth at or over 70%; not met = growth under 70%.

compound	cat
CC(=O)C1CC(C)CCC1C(C)C (configuration not stated)	met
CCCCCCCCCCCC[n+]1ccccc1	met
Cn1ccnc1C(=O)/C=C/c1ccc(CC(=O)Nc2ccc(Br)cc2)cc1	not met
C/C(=C(/c1ccc(Cl)cc1)c1ccc(OCCN2CCCCC2)cc1)c1ccccc1	met
COc1ccc(COc2cc3oc(=O)c4cc(C(C)O)ccc4c3cc2OC)cc1 (configuration not stated)	not met
CC(C)C1CCC(C)C(C2(C#N)C(N)=NC(N)=C2C#N)C1=O (configuration not stated)	met

---

test system: SW-620 colon; assay: NCI-60 one-dose screen, 48 h (100 = growth as untreated, 0 = no growth, -100 = all killed); settings: 10 µM unless noted
The panel holds about 83,000 compounds, 20% with a hit somewhere; the sample as a whole holds those more often.
Measured growth, listed per entry for reference.
experimentalReadout: growth (%)

compound	targetDesc	number
O=C(COc1cccc(/C=C2\Cc3ccc(Cl)cc3C2=O)c1)Nc1nccs1	SW-620 colon	110
Cc1nc(-c2cn3c(n2)-c2ccc(-c4cnn(C(C)(C)C(N)=O)c4)cc2OCC3)n(C(C)C)n1	SW-620 colon	44
O=C(Nc1cccc(Cl)c1)Nc1ncc(CCNc2ncnc3ccsc23)s1	SW-620 colon	62.6
O=C(Cc1ccc(-c2ccc(OCCN3CCOCC3)cc2)cn1)NCc1ccccc1	SW-620 colon	21.3
Cc1c(N)ccc(-c2ccc(N)c(C)c2S(=O)(=O)O)c1S(=O)(=O)O	SW-620 colon	109
O=C(NO)c1ccc(Cn2c(=O)n(CCc3ccccc3)c(=O)c3ccccc32)cc1	SW-620 colon	20.9
CC(N)C(Cc1ccccc1)c1ccc(Cl)cc1 (stereo not given)	SW-620 colon	88.9
O=C(Nc1cccc([N+](=O)[O-])c1)c1ccc(Cl)c(Cl)c1	SW-620 colon	96.2
COc1c(OCCCN2CCOCC2)ccc2c3n(c(=NC(=O)c4cnc(N)nc4)nc12)CCN3	SW-620 colon	20.5
O=S1(=O)OC(c2ccc(O)c(Cl)c2)(c2ccc(O)c(Cl)c2)c2ccccc21	SW-620 colon	100

---

test system: COLO 205 colon; assay: NCI-60 one-dose screen, 48 h (100 = growth as untreated, 0 = no growth, -100 = all killed); conditions: 10 µM unless noted
Compounds without any hit were thinned out: in the full panel of roughly 83,000, 20% have a hit.

molecule	readoutUnit	growth
COc1ccc(-c2cnc(-c3ccc(Cl)cc3)[nH]2)cc1OC	%	98.7
Cc1ccc(Nc2nccc(N(C)c3ccc4c(C)n(C)nc4c3)n2)cc1S(N)(=O)=O	%	-10.3
O=C1OCC2=C1C(c1cccc(F)c1)c1cc3c(cc1N2CCO)OCCO3 (centres undefined)	%	-5.04
COc1ccc(-c2cc3c(oc2=O)-c2ccccc2OC3OC(C)=O)cc1 (centres undefined)	%	97.4
Cc1cc(C)n(CC(=O)Nc2ccc(-c3nc4ccccc4s3)cc2)n1	%	112
COc1cc(OC)c(/C=C/S(=O)(=O)Cc2ccc(OC)c(NCC(=O)O)c2)c(OC)c1	%	-62.1
Cn1ccnc1C(=O)/C=C/c1ccc(CC(=O)Nc2ccc(C(F)(F)F)cc2)cc1	%	5.87
COc1cc2c(Nc3ccc(Br)cc3F)ncnc2cc1OCC1CCN(C)CC1	%	-13.9
CNC(=O)c1cccc2cc(Oc3ccnc4cc(OCC5(N)CC5)c(OC)cc34)ccc12	%	58
CC[C@@H]1C(=O)N(C)c2cnc(Nc3ccc(C(=O)NC4CCC(N5CCN(CC6CC6)CC5)CC4)cc3OC)nc2N1C(C)C (some centres undefined)	%	-61.9
C=CCCCC(=O)CCC(=O)OCC1O[C@@H](O[C@@H]2C(O)[C@@H](OC(C)=O)C(C)O[C@H]2O[C@H](CC=C)CCCCC)C(O)[C@@H](OC(=O)/C(C)=C/C)[C@@H]1OC(=O)/C=C/c1ccccc1 (some centres undefined)	%	-8.37
O=C(Cn1c(=O)ccn(CCCCCCCCOc2ccc(Br)cc2)c1=O)Nc1ccc(Oc2ccc(Cl)cc2)cc1	%	76.7
CC(=O)C1=C(C)NC(SCc2nnc(-c3ccc(C)cc3)o2)=NC1c1ccc(F)cc1 (centres undefined)	%	115
CN(C)CCn1c(=O)c2c3cc4c(cc3n(CCN(C)C)c2c2ccc(Cl)cc21)OCO4	%	27
O=C(c1c(F)ccc(NS(=O)(=O)N2CC[C@@H](F)C2)c1F)c1c[nH]c2ncc(-c3cnc(C4CC4)nc3)cc12	%	0.255
C=C1C[C@H](O)[C@H](Br)C(C)(C)[C@@]12CCC(C)=C(Cl)C2	%	-79.1
Nc1cc(C(F)(F)F)c(-c2cc(N3CCOCC3)nc(N3CCOCC3)n2)cn1	%	-61.3
COc1ccc2c(CCCCC(c3ccccc3)c3ccccc3)c3[n+](cc2c1OC)CCc1cc2c(cc1-3)OCO2	%	-77.3
CCN1CCN(CCCN(C[C@H]2Cc3ccccc3CN2)[C@H]2CCCc3cccnc32)CC1	%	97.2
CC1CCC(n2cnc3c(Cl)ncnc32)O1 (centres undefined)	%	104
Cc1[nH]c(/C=C2\C(=O)Nc3ccc(F)cc32)c(C)c1C(=O)NC[C@H](O)CN1CCOCC1	%	-8.22
CC(=Nc1ccccc1)C1=C(O)C(Cc2ccc(O)cc2)NC1=O (centres undefined)	%	-71
COC(=O)[C@]12CC[C@@H](C)[C@H](C)[C@@H]1C1=CC[C@@H]3[C@@]4(C)C(C=O)=C[C@@](C)(COS(C)(=O)=O)C4=CC[C@@]3(C)[C@]1(C)CC2	%	-39.9
O=C(Nc1nc2cccc(-c3ccc(CN4CCS(=O)(=O)CC4)cc3)n2n1)C1CC1	%	59.5
COCCN1CCN(Cc2ccc(-c3n[nH]c4c3C(=O)c3c(NC(=O)NN5CCOCC5)cccc3-4)cc2)CC1	%	-64.5
CO[C@H]1C[C@@H]2CC[C@@H](C)[C@@](O)(O2)C(=O)C(=O)N2CCCC[C@H]2C(=O)O[C@H]([C@H](C)C[C@@H]2CC[C@@H](OP(C)(C)=O)[C@H](OC)C2)CC(=O)[C@H](C)/C=C(\C)[C@@H](O)[C@@H](OC)C(=O)[C@H](C)C[C@H](C)\C=C/C=C/C=C/1C	%	52.6
Cc1cc(-c2cc(OC(=O)c3ccccc3)ccc2Cl)cc2nnc(Nc3ccc(OCCN4CCCC4)cc3)nc12	%	62.8
Nc1nc(Nc2ccccc2)c(C=Nc2ccccc2)c(=O)[nH]1	%	107
COC(=O)[C@H](Cc1ccccc1)NC(=O)[C@@H](OC)[C@@H]1Cc2cc3cc(OC4CC(OC5CC(O)C(O)C(C)O5)C(O)C(C)O4)c(C)c(O)c3c(O)c2C(=O)[C@H]1OC1CC(OC2CC(OC3CC(C)(O)C(O)C(C)O3)C(O)C(C)O2)C(O)C(C)O1 (some centres undefined)	%	-36.7
COc1ccc(-c2cc3c(C)nc(N)nc3n(C3CCC(OCCO)CC3)c2=O)cn1 (centres undefined)	%	-61.1
CCc1ccc(C2=C(O)C(=O)C(c3ccc(CC)cc3)=C(O)C2=O)cc1	%	5.7
CN1C/C=C\CCOc2cccc(c2)-c2ccnc(n2)Nc2cccc(c2)C1	%	-81.6
COc1ccc(C2OC(c3cc(-c4cc5ccccc5o4)nn3-c3ccccc3)=NN2C(C)=O)cc1 (centres undefined)	%	103
Nc1c(Cl)cccc1[N+](=O)[O-]	%	114
